- method: acute toxicity in mice p.o.
- assay setup: mouse, in vivo, po, read-out: LD₅₀
Counter-ions that a name gives are not always drawn.
recorded endpoint: LD50 (mg/kg)

[[record]]
compound = "CN(C)Cc1ccccc1Sc1cccc(O)c1 [compound IA hydrogen maleate]"
unit_annotation = "mg/kg"
recorded_value = 232


###

- subject of test: DP receptors (Rattus norvegicus, UniProt Q63380)
- Sequence (Q63380 1-617): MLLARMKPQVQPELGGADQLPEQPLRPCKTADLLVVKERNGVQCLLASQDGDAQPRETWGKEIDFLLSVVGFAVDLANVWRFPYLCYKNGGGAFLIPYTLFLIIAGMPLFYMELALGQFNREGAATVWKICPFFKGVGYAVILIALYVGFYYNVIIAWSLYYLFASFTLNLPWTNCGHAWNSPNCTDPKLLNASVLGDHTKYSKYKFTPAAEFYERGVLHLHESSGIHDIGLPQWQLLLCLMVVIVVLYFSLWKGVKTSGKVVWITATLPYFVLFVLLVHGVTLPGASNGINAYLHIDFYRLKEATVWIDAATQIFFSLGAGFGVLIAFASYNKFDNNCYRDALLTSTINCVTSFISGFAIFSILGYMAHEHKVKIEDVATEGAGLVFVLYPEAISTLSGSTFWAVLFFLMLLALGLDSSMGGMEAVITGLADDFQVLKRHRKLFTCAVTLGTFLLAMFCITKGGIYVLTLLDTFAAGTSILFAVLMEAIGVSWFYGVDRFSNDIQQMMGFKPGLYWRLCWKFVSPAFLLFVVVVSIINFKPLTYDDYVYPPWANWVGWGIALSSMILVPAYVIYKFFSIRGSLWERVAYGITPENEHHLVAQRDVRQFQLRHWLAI
pIC50: −log10 of the molar value. Structures can show the parent of a compound that is named as a salt.
recorded endpoint: pIC50

[[record]]
molecule = "CN(C)Cc1ccccc1Sc1cccc(O)c1 [compound IA hydrogen maleate]"
recorded_value = 4.89

